- measured_on: T1, cynomolgus PD-1 (#PD1-C52H5, AcroBiosystems) (cynomolgus monkey, UniProt B0LAJ3 25-170)
- T1 construct: bought; also called cynomolgus monkey PD-1; not shown: the vendor's tag on the recombinant protein (AcroBiosystems #PD1-C52H5)
- run_description: SPR, PD-1 on captured IgG1
result_type: koff (s⁻¹)
Quick reminder: number only, in s⁻¹, skip the unit.

The examples below pair each entry with its known result.
# binder, test_result
rows = [
    ("ZTD928 (antibody, human IgG1, V domains shown, human IgG1) VH: VQLVQSGAEVKKPGASVKVSCKASGYTFTNFYIHWVRQAPGQGLEWMGSIYPNYGITAYNQKFKDRVTMTVDTSTSTAYMELRSLRSDDTAVYYCARGYSYAMDYWGQGTTVTVSS VL: DIQMTQSPSSVSASVGDRVTITCSASQGISGDLNWYQQKPGKAPKLLIYHTSQLHSDVPSRFSGSGSGTDFTLTISSLQPEDFATYYCQGYSKDTLTFGGGTKLEIK", 0.000243),
    ("YCF391 (antibody, human IgG1, V domains shown, human IgG1) VH: VQLVQSGAEVKKPGASVKVSCKASGYTFTNFYIHWVRQAPGQGLEWMGSTYPNYGITAYNQKFKDRVTMTVDTSTSTAYMELRSLRSDDTAVYYCARGYSYAMDYWGQGTTVTVSS VL: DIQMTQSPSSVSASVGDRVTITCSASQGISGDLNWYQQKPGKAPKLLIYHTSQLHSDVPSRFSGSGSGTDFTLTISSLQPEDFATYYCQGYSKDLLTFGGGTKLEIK", 0.00026),
]

Proceed to the following item.
For RZL961 (antibody, human IgG1, V domains shown, human IgG1) VH: VQLVQSGAEVKKPGASVKVSCKASGYTFTNFYIHWVRQAPGQGLEWMGSIYPQYGITAYNQKFKDRVTMTVDTSTSTAYMELRSLRSDDTAVYYCARGYSYAMDYWGQGTTVTVSS VL: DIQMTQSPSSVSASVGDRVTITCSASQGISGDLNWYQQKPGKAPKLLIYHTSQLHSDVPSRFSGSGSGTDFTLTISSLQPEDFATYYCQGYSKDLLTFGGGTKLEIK the binder record lists koff as 0.000436
